Tested on: HOP-62 NSCLC
Measurement Description: NCI tumour cell line growth inhibition, 48 h
Please go through the items and note down their TGI.
All answers are understood in µM, so give the number only.

Data request: Any idea what its TGI is? The compound is CCCS(=O)(=O)c1nc(NC2CC2)cc(-c2ccc3c(ccn3C3CC(C)(C)NC(C)(C)C3)c2)n1
Data returned: 3.4

Data request: Quick check: TGI of COC(=O)C(CCSC)NC(=O)CSc1nnc(COc2ccc(Cl)cc2)n1-c1ccccc1 (centres undefined) ?
Data returned: 23.8

----------
Test system: UO-31 renal
Measurement Description: NCI tumour cell line growth inhibition, 48 h
For each entry below, report its TGI value.

Data request: Given the entry NNC(=O)c1cccc2c1Oc1ccccc1S2 , what TGI was observed with UO-31 renal?
Data returned: > 100 µM

Data request: Please state recorded TGI (tested on UO-31 renal) of Nc1ccc(SC23CC4CC(CC(C4)C2)C3)cc1
Data returned: > 100 µM

Data request: # get_value(readout= TGI, system= UO-31 renal) for COC(=O)C(Cc1ccccc1)N/C=C\C(=O)c1ccc(Cl)cc1 (stereo unspecified)
Data returned: > 100 µM

Data request: For UO-31 renal, provide TGI of CCOC(=O)Cc1nn2c(=O)cc(C)nc2s1 please.
Data returned: > 100 µM

Data request: Identify the measured TGI of C=CC(=O)N1CCN(c2ncnc3c(F)c(-c4c(O)cccc4F)c(Cl)cc23)CC1 for UO-31 renal.
Data returned: 29 µM

Data request: Lookup: TGI / UO-31 renal / Cc1ncc([N+](=O)[O-])n1CCNC(=O)CCCCn1ccnc1[N+](=O)[O-]
Data returned: > 100 µM

Data request: Hello, I am looking for reported TGI with UO-31 renal for Cc1noc(C)c1-c1ccc2[nH]c(=O)n3c2c1OC[C@@H]3c1ccccn1 . Could you help?
Data returned: > 100 µM

Data request: For UO-31 renal, provide TGI of COc1ccc(/C(C)=N/NC(=S)N(C)C)c(O)c1 please.
Data returned: 36 µM

Data request: Request body: readout TGI, system UO-31 renal, query O=C(O)c1cc2ccccc2c(S(=O)(=O)O)c1O . Return the value.
Data returned: > 100 µM

Data request: Lab request: please report TGI under test system UO-31 renal for CCC1(CC)C(=O)NC(=S)N=C1N
Data returned: > 100 µM

Data request: Given the entry COc1cc(OC)c(C2c3cc4c(cc3OC(N3CCOCC3)C2C)OCO4)c(OC)c1 (stereo unspecified) , what TGI was observed with UO-31 renal?
Data returned: > 100 µM

----------
System: BT-549 breast
Measurement Description: NCI tumour cell line growth inhibition, 48 h
Kind request: treat 30 µM as inclusive, so TGI at 30 µM or higher is class 1, anything lower is class 0.

Data request: API: above_or_equal(metric=TGI, cutoff=30 µM) for item FC(F)(F)c1ccc2c(Nc3cccc(C4CC(c5ccccc5)=NN4c4ccc(Cl)cc4)c3)ccnc2c1 (stereo not drawn)
Data returned: class 0

Data request: Say whether O=S1(=O)c2ccccc2NC(=S)N1c1ccccc1 shows TGI of 30 µM or more.
Data returned: class 1

Data request: Is TGI at least 30 µM? Consider COC(=O)C1=C(C)N2[C@H](C(=O)O)CS[C@@]2(C)[C@H](C(=O)OC)[C@H]1c1cccc([N+](=O)[O-])c1
Data returned: class 1

Data request: Decide: is the reported value of TGI for C[C@@H]1C(=O)CC2(O)[C@@]13C[C@@H](OC(=O)[C@@H]3O)[C@@H](C)[C@@]21COC1=O (stereo partly drawn) equal to or greater than 30 µM?
Data returned: class 1

Data request: Determine whether this compound has TGI no lower than 30 µM: COC(=O)c1sc2ncc3c(c2c1N)CC(C)CC3 (stereo not drawn)
Data returned: class 1

Data request: State whether the measured TGI reaches 30 µM, counting equality as reaching it, for CCCSc1cc(Cl)nc(N)n1
Data returned: class 1

Data request: For this compound, is measured TGI 30 µM or higher? Cc1cccc(NC(Nc2cccc(C)c2)=C(C(Cl)=C(Cl)Cl)[N+](=O)[O-])c1
Data returned: class 0

Data request: Check if TGI >= 30 µM (inclusive). Item: N/C(CSCCSC/C(N)=N/O)=N\O
Data returned: class 1

Data request: Form field: TGI at least 30 µM? Entry: CCN(CCO)CCNc1ccc(C)c2sc3cc(Cl)ccc3c(=O)c12
Data returned: class 0

Data request: Can Cc1ncc(NC(=O)c2ccc(CN3CCN(C)CC3)c(C(F)(F)F)c2)cc1Nc1nccc(-c2cccnc2)n1 be said to have TGI at or above 30 µM?
Data returned: class 1

Data request: Decide: is the reported value of TGI for O=[N+]([O-])c1ccc2nc3c(nc2c1)-c1c2ccccc2cc2cccc-3c12 equal to or greater than 30 µM?
Data returned: class 0

Data request: Check if TGI >= 30 µM (inclusive). Item: O=C1NN=C(c2c[nH]c3ccccc23)CC1NCc1ccccc1 (stereo not drawn)
Data returned: class 1

Data request: Hi team, for CCc1cc(=O)n(/C(C)=C/c2ccccc2)n1C , is the recorded TGI at or above 30 µM?
Data returned: class 1

Data request: Check if TGI >= 30 µM (inclusive). Item: CN1CCN(Cc2ccc(NC(=O)c3ccc(C(C)(C)C)c(C#Cc4cnc5cccnn45)c3)cc2C(F)(F)F)CC1
Data returned: class 0

Data request: Reported TGI reaches at least 30 µM for O=c1c(Cc2ccccc2)c(-c2ccccc2)[nH]n1C1=NCCN1 ?
Data returned: class 1

Data request: Could you verify whether the entry C=CC(=O)Nc1cccc(Nc2nc(Nc3ccc(OCCOC)cc3)ncc2F)c1 shows TGI of no less than 30 µM?
Data returned: class 0

Data request: Does the reported TGI for CCOC1NC(=O)c2ccccc21 (stereo not drawn) fall at or above the 30 µM mark?
Data returned: class 1

Data request: Please check the record N#Cc1c(-c2ccccc2)nc2c(c(-c3ccccc3)nn2-c2ccccc2)c1-c1ccc(O)cc1 and state if its TGI is at or above 30 µM.
Data returned: class 0

Data request: Entry NNC(=O)c1cccc2c1Oc1ccccc1S2 : is its TGI no less than 30 µM?
Data returned: class 1

Data request: Answer whether TGI of CCCNCc1cc(C)cc2c1nc(N1CCNCC1)n2Cc1cc(C)c(F)c(C)c1 is greater than or equal to 30 µM.
Data returned: class 0

Data request: Evaluate Nc1n[nH]c2ccccc12 : TGI at minimum 30 µM?
Data returned: class 1

Data request: hey, is TGI for this one >= 30 µM? Nc1nc(Nc2ccc(OCc3cccc(F)c3)cc2)c2c(n1)[nH]c1ccc(O)cc12
Data returned: class 0

Data request: Reported TGI reaches at least 30 µM for CC1=C(C)C(=O)O[C@@H]([C@](C)(O)[C@]2(O)CC[C@@]3(O)[C@@H]4C[C@H]5O[C@]56CC=CC(=O)[C@]6(C)[C@H]4CC[C@]23C)C1 ?
Data returned: class 0

Data request: // inclusive: TGI at least 30 µM? input: CN(C)CCNC(=O)Nc1c(C#N)[n+]([O-])c2cc(Cl)c(Cl)cc2[n+]1[O-]
Data returned: class 1

Data request: Is reported TGI greater than or equal to 30 µM here: COC(=O)c1c(O)ccc2[nH]c(C)c(C#N)c12
Data returned: class 1

Data request: Decide: is the reported value of TGI for O=C(N/N=C/c1ccc(Cl)cc1Cl)c1ccccc1Nc1cccc(C(F)(F)F)c1 equal to or greater than 30 µM?
Data returned: class 1

Data request: Does the compound CC(C)Cc1c(C#N)c(C#N)c(N)n1Cc1ccccc1 have recorded TGI that is 30 µM or more?
Data returned: class 1

Data request: Is the recorded value of TGI equal to or greater than 30 µM for this compound? CC(=O)n1c(-c2ccc(Cl)cc2)nc2c(c1=O)C(c1ccc(Cl)cc1)c1sc3c(Cl)cccc3c1O2 (stereo not drawn)
Data returned: class 0

Data request: Could you please find out whether CNC(=O)c1ccc(-c2cnc3ncc(Cc4ccc5ncccc5c4)n3n2)cc1F has TGI that meets 30 µM or exceeds it?
Data returned: class 1

Data request: Test whether the compound CCOC(=O)c1[nH]c2nc(SC)nc(NC)c2c1N records TGI of 30 µM or higher.
Data returned: class 1

Data request: Check if TGI >= 30 µM (inclusive). Item: NC(N)=N/N=C/c1c(-c2ccccn2)nc2sc(Cl)cn12
Data returned: class 0

Data request: Evaluate O=C(/C=C1\C[C@H]2C=Nc3ccccc3C(=O)N2C1)NCCCCCNC(=O)/C=C1\C[C@H]2C=Nc3ccccc3C(=O)N2C1 : TGI at minimum 30 µM?
Data returned: class 0

Data request: Hello, I need to know if COC1OC2COC(C)(C)OC2C2OC(C)(C)OC12 (stereo not drawn) has measured TGI not below 30 µM. Thanks!
Data returned: class 1

Data request: Exam item: decide whether the reported TGI for CCN(C(=O)N[C@H](C(=O)N[C@@H](C)C(=O)OC)C(C)C)c1ccccc1 is at least 30 µM.
Data returned: class 1

Data request: Please tell me: is the compound CC1=CCC[C@H]2[C@](C)(CC3=CC(=O)C4SCCSC4C3=O)[C@@H](C)CC[C@]12C (stereo partly drawn) at or over 30 µM in terms of TGI?
Data returned: class 1

Source: PubChem BioAssay (NCI)
